Source listed as patent US20190380957A1.

Method Notes: In vitro cytocompatibility (LIVE/DEAD viability/cytotoxicity kit)
Assay type: cell-based
Particulars: mouse, NIH 3T3 fibroblasts; 800 μM SL-Kr5 in media, day 3; control 85-90%, p<0.05; read-out: viability of cells
Observed Property: viability at 72 h, 800 µM

| Substance | Reported Measurement |
| --- | --- |
| Ac-KSLSLSLSLSLSLKGPRKLYDY-NH2 [SL-Kr5, K-(SL)6-K-G-PRKLYDY] | 55% |
